- Test system: CCRF-CEM
- Protocol summary: XTT cytotoxicity assay, CCRF-CEM cells
- Format: cell-based, human
- Test context: Example 12, growth inhibition; read-out: activity, CCRF-CEM tumor cell lines
pIC50: −log10 of the molar value.
Assay endpoint: pIC50

GET /values?readout=pIC50&item= CC1=CCC(C(C)=Cc2csc(C)n2)OC(=O)CC(O)C(C)(C)C(=O)C(C)C(O)C(C)CC=CC1 (stereo not shown) [[17]ddEpoB]
~7.29

* * *

- System: CCRF-CEM
- Protocol summary: XTT cytotoxicity assay, CCRF-CEM cells
- Type: cell-based, human
- Test context: Homo sapiens, CCRF-CEM; Example 6 table; XTT assay following 72 h inhibition; read-out: CCRF-CEM (IC50 (μM))
Assay endpoint: IC50 (µM)
Numbers only; they are read as µM.

GET /values?readout=IC50&item= C/C(=C\c1csc(C)n1)[C@@H]1C/C=C(/C(F)(F)F)C/C=C/C[C@H](C)[C@H](O)[C@@H](C)C(=O)C(C)(C)[C@@H](O)CC(=O)O1 [27-Tn-F-[17]ddEpoB (22)]
0.068
